The measured values listed here are drawn from PubChem BioAssay (NCI).

Please respond with reported TGI for every item in the list.
Tested on: COLO 205 colon
protocol.text: NCI tumour cell line growth inhibition, 48 h

Value of TGI reported for the compound COc1ccc(-c2cc(=O)oc3c4c(ccc23)OCN(Cc2ccc(F)cc2)C4)cc1 is 36.1 µM

Please fill in: TGI reported for O=[N+]([O-])c1ccccc1N=Nc1c(O)[nH]c2c(Cl)cc(Cl)cc12 = > 100 µM

Lookup result for CC1(C)C=CC(=O)C(O)C(C)(C)C1=O (stereo unspecified) ; measured TGI: > 100 µM

The compound listed as O=C(O)C(O)C(O)C(O)C(O)CO (stereo unspecified) shows TGI equal to > 100 µM

Value of TGI reported for the compound CCN(CC)c1ccc(/C=C/c2ccnc3ccccc23)cc1 is > 100 µM

Per the records, this compound ( c1ccc(C2=NOC(c3ccccc3)N2C23CC4CC(CC(C4)C2)C3)cc1 (stereo unspecified) ) has TGI equal to > 10 µM

---

Tested on: A498 renal
protocol.text: NCI tumour cell line growth inhibition, 48 h
Exercise: for every item that follows, state its recorded TGI.

Recorded TGI (molecule O=C(CN1C(=O)CC(c2ccccc2)(c2ccccc2)C1=O)N1CCN(CCO)CC1 ): > 100 µM

Lookup result for CC(C)N1CCN(c2ccc(OCC3COC(Cn4cncn4)(c4ccc(Cl)cc4Cl)O3)cc2)CC1 (stereo unspecified) ; measured TGI: 27.4 µM

Reported TGI of CCOC(=O)CC/C(=N/Nc1ccc(Cl)cc1[N+](=O)[O-])C(=O)OCC : > 100 µM

// TGI value for CC(C)Oc1cccc(N2C(=NCc3c[nH]c4ccccc34)Nc3ccncc3S2(=O)=O)c1 : > 100 µM

The molecule listed as COc1ccc(Cl)cc1NC(=O)c1ccc(NC2=C(Cl)C(=O)N(Cc3ccccc3)C2=O)cc1 has a reported TGI of > 100 µM

The measured TGI associated with c1ccc(C2=NOC(c3ccccc3)N2C23CC4CC(CC(C4)C2)C3)cc1 (stereo unspecified) reads > 10 µM

TGI reported for this molecule COc1ccc2oc(=N)c(C(=O)Nc3ccccc3)cc2c1 : 39.8 µM

The recorded TGI for CCc1n[nH]c(=O)n1-c1ccc2ccccc2c1 is > 100 µM

So for COc1ccc(CC(N)=O)cc1OC , the logged TGI turned out to be > 1250 µM

The value of TGI measured for the molecule CC(C)=CCC1=C(O)c2ccccc2C(=O)C1=O turned out to be > 100 µM

The recorded TGI for entry COc1ccc(N2C(=O)C3c4[nH]c5cc(C)ccc5c4C4CCC(C(C)(C)C)CC4C3C2=O)cc1 (stereo unspecified) equals > 10 µM

Value of measured TGI for the entry O=C1C=C(Nc2ccc(Cl)cc2C(=O)c2ccccc2)c2ccccc2C1=O : > 100 µM

get_value(item= O[C@H]1[C@H](O)[C@@H](O)CN2CC[C@H](O)[C@H]12 , readout=TGI) returns > 100 µM

Sure, the documented TGI for [N-]=[N+]=NC1(c2ccccc2)C(=O)c2cccc3c2N(CCC3)C1=O (stereo unspecified) is > 100 µM

Record summary for CO[C@@H]1CC[C@]2(C)OC[C@H](C)[C@@H]3C[C@@H](C)[C@@H](OC(C)=O)[C@@H]4[C@H]3[C@@H]2O[C@H]4C[C@@]1(C)O : reported TGI = > 100 µM

The molecule listed as CNc1[nH]c(=S)nc2sc3c(c12)CCCC3 has a reported TGI of > 75 µM

---

Task for the reader: assign each of the following compounds its reported GI50.
System: SW-620 colon
protocol.text: NCI tumour cell line growth inhibition, 48 h

Reported GI50 for Cc1cccc(NC2=C(Cl)C(=O)c3nc(C)ccc3C2=O)c1 was 1.64 µM

In plain terms, NNc1ncnc2nc[nH]c12 has a documented GI50 of 3.91 µM

The reported GI50 of the compound COc1nc(=O)n(C2C=CC(=O)O2)cc1F (stereo unspecified) was 4.19 µM

// C=C(CN(C)Cc1ccccc1)c1ccc(NC(=O)c2ccc(C(=C)CN(C)Cc3ccccc3)cc2)cc1 : GI50 value = 96.7 µM

// GI50 lookup, compound = CNCCCNc1ccnc2cc(Cl)ccc12 , result: 13.2 µM

Recorded GI50 (compound O=C(Nc1nc(-c2c[nH]c3ccccc23)cs1)c1n[nH]c(=O)c2ccccc12 ): 1.91 µM

get_value(item= C[C@H](CCOc1cccc(CC(=O)O)c1)N(Cc1cccc(C(F)(F)F)c1Cl)CC(c1ccccc1)c1ccccc1 , readout=GI50) returns 5.28 µM

Entry CCN(CCNS(C)(=O)=O)c1ccc(N)c(C)c1 — recorded GI50 = 2.25 µM

Value of measured GI50 for the entry NC(=O)c1cc(I)ccc1NC(=O)/C=C/c1ccccc1 : 0.48 µM

Measured GI50 of CCSc1nc(N=Cc2ccccc2O)c2cn[nH]c2n1 : 38.4 µM

Noted for CN(C)CCN1CCC(Cc2ccccc2)CC1 : its GI50 reads > 80 µM

---

Test system: ACHN renal
protocol.text: NCI tumour cell line growth inhibition, 48 h
experimental.readout: TGI

TGI measured on CCN(CC)c1ccc(/C=C/c2ccnc3ccccc23)cc1 = > 100 µM

Memo: CCOC(=O)Cc1csc(Nc2ccccc2[N+](=O)[O-])n1 , reported TGI: > 100 µM

Per the record, Nc1c(S(=O)(=O)c2ccc(Cl)cc2)c2nc3ccccc3nc2n2ccnc12 has TGI of > 100 µM

Input CSc1csc(-c2ccc(-c3ccc(-c4cc(SC)cs4)s3)s2)c1 . Output TGI: > 100 µM

C=C1C(=O)[C@@]23CC[C@@H]4[C@@]5(C)CCC[C@@]4(OC5=O)[C@@]2(C)CC[C@@H]1C3 yielded TGI of 2.64 µM

---

Test system: HOP-92 NSCLC
protocol.text: NCI tumour cell line growth inhibition, 48 h; in the data active = GI50 below about 0.43 µM; inactive = the rest
Your answer must be one of the following: YES = active, NO = inactive

GET /call?item= CCOC(=O)c1c(C)c2c(n1Cc1ccccc1)CSCC2=O returns the recorded outcome of this test.
NO

Hi, sorry to bother you, what did the test record for COc1cccc2c1O/C(=C\c1ccc([N+](=O)[O-])s1)C2=O ?
NO

Write down the call the test reported for this compound. Item: C=CC12CCN(CC1)C(C(O)c1ccnc3ccc(OC)cc13)C2 (stereo not drawn)
NO

GET /call?item= NC(N)=Nc1nc2ccccc2o1 returns the recorded outcome of this test.
NO

For this compound, state the assay outcome: CC[C@]1(O)C[C@H]2CN(CCc3c([nH]c4ccccc34)C(C(=O)OC)(c3cc4c(cc3OC)N(C)[C@H]3[C@@](O)(C(=O)OC)[C@H](OC(C)=O)[C@]5(CC)[C@@H]6C[C@@H]6CN6CC[C@]43[C@@H]65)C2)C1 (stereo partly drawn)
YES

What classification did COc1ccc(CNc2c3ccccc3nc3ccccc23)cc1F end up with in this test?
NO

Short answer needed: outcome of this test for O=c1cccc(C#CC#C[C@@H]2O[C@H]2CO)o1 ?
NO

Identify the outcome logged in this assay for the compound shown: Cc1cccc(NC2=C(Cl)C(=O)c3nc(C)ccc3C2=O)c1
NO

---

I'd be grateful if you could share measured TGI for these entries.
Test system: SK-MEL-2 melanoma
protocol.text: NCI tumour cell line growth inhibition, 48 h

Lookup result for COc1ccc(-c2cc(=O)oc3c4c(ccc23)OCN(Cc2ccc(F)cc2)C4)cc1 ; measured TGI: 31.3 µM

Reported TGI of CCOc1c(OC)cc(-c2nc3n(n2)C(=O)C(CC)S3)cc1OC (centres undefined) : > 10 µM

Sample C[C@@H]1CCC2[C@@H](C)[C@@H](O[C@H]3O[C@@H]4O[C@@]5(C)CCC6[C@H](C)CCC([C@H]3C)[C@]64OO5)O[C@@H]3O[C@@]4(C)CCC1[C@@]23OO4 (some centres undefined) ; TGI observed: > 25 µM

CCCCCCn1c(-c2ccc(C(=O)O/N=C(\N)c3ccc4c(c3)OCO4)cc2)nc(-c2ccccc2)c1-c1ccccc1 yielded TGI of 21.7 µM

CC(C)(C)c1ccc2c(c1)C#Cc1cc3c(cc1OCCCO2)C#Cc1cc(C(C)(C)C)ccc1OCCCO3 yielded TGI of > 100 µM

Lab book: TGI of O=C(OCC(Cl)(Cl)Cl)N1CC[C@H](C2CCCCC2)C1 noted as 30.4 µM

Value of TGI reported for the molecule CC(C)=CCC1=C(O)c2ccccc2C(=O)C1=O is > 88.3 µM

// TGI value for Cc1ccsc1/C=N/Nc1cnccn1 : > 100 µM

# TGI (molecule: C=C(C)C(C1C=C(CCC(C=O)=C(C)C)C(=O)O1)C1(OC)C=C(C)C(=O)O1 (centres undefined) ) is > 100 µM

---

Test system: CCRF-CEM leukemia
protocol.text: NCI tumour cell line growth inhibition, 48 h
experimental.readout: TGI

The value of TGI measured for the compound COc1c2occc2c(N)c2ccc(=O)oc12 turned out to be > 100 µM

Measured TGI, COC(=O)C1=CN(CC2=CC(=O)C(C)=CC2=O)C=C(C(=O)OC)C1c1ccccc1OC : 14.1 µM

Recorded result, CCOC(=O)c1c(C)c2c(n1Cc1ccccc1)CSCC2=O , TGI: > 100 µM

Notebook: C=CC1(C)CC(=O)C2(O)C(C)(O1)C(OC(C)=O)C(O)C1C(C)(C)CCC(O)C12C (stereo not given) , TGI read as > 150 µM

response.value for C/C1=C\[C@H](C)C[C@H](C)OC(=O)[C@H](C)NC(=O)[C@@H](Cc2ccc(O)c(Br)c2)N(C)C(=O)[C@H](C)NC(=O)[C@@H](C)C1 (field: TGI) = > 10.3 µM
